Study system: T1, Cellular CD73 on MDA-MB-231 human breast cancer cells (human, UniProt P21589 27-549)
T1 construct: whole, on cells; Endogenous CD73 on MDA-MB-231 cells; also called 5'-nucleotidase; ecto-5'-nucleotidase
T1 sequence (looked up): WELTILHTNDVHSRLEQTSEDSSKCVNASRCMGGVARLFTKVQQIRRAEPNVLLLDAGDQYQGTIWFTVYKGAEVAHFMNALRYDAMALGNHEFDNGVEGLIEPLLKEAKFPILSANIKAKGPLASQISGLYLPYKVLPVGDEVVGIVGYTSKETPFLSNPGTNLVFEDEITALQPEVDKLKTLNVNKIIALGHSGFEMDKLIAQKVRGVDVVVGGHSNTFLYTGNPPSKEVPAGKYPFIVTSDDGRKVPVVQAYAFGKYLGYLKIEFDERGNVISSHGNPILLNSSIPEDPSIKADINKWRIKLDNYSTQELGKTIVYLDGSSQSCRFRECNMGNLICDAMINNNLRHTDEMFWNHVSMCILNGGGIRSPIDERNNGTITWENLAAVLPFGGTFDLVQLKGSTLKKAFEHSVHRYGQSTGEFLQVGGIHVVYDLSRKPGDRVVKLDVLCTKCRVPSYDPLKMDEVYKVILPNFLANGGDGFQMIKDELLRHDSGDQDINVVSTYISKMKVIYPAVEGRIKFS
Assay procedure: flow cytometry on MDA-MB-231 cells, PE anti-human secondary
Outcome measure: binding result

Q: Recorded binding result of CPX-006 (glycosylated) (antibody, human IgG1, kappa, N297Q, V domains shown, N-linked glycosylation on CDR L1 (NXS motif at Kabat 27A-27C), Humanized anti-CD73 antibody with the CDRs of mouse 1E9; also called BAP094-hum07; glycosylated antibody) VH: QVQLVQSGAEVEKPGASVKVSCKASGYTFTSYWITWVRQAPGQGLEWMGDIYPGSGNTNYNEKFKTRVTITADKSTSTAYMELSSLRSEDTAVYYCAKEGGLTTEDYALDYWGQGTLVTVSS VL: EIVLTQSPATLSLSPGERATLSCRASKNVSTSGYSYMHWYQQKPGQAPRLLIYLASNLESGIPPRFSGSGYGTDFTLTINNIESEDAAYYFCQHSRELPFTFGQGTKVEIKR , please.
A: binds

Q: Data request, read-out binding result, for CPX-009 (antibody, V domains shown, A at Kabat 27A of CDR L1, made in the CPX-006 light chain) VH: QVQLVQSGAEVEKPGASVKVSCKASGYTFTSYWITWVRQAPGQGLEWMGDIYPGSGNTNYNEKFKTRVTITADKSTSTAYMELSSLRSEDTAVYYCAKEGGLTTEDYALDYWGQGTLVTV VL: EIVLTQSPATLSLSPGERATLSCRASKAVSTSGYSYMHWYQQKPGQAPRLLIYLASNLESGIPPRFSGSGYGTDFTLTINNIESEDAAYYFCQHSRELPFTFGQGTKVEIK
A: binds

Q: # get_value(readout='binding result', item= CPX-011 (antibody, V domains shown, A at Kabat 27C of CDR L1, made in the CPX-006 light chain) VH: QVQLVQSGAEVEKPGASVKVSCKASGYTFTSYWITWVRQAPGQGLEWMGDIYPGSGNTNYNEKFKTRVTITADKSTSTAYMELSSLRSEDTAVYYCAKEGGLTTEDYALDYWGQGTLVTV VL: EIVLTQSPATLSLSPGERATLSCRASKNVATSGYSYMHWYQQKPGQAPRLLIYLASNLESGIPPRFSGSGYGTDFTLTINNIESEDAAYYFCQHSRELPFTFGQGTKVEIK )
A: binds
